- tested-on: Myo3, P36006
- assay-info: SPOT array
- condition: median of control spots 468
reported-metric: SPOT intensity

Worked set:
| binder | SPOT intensity |
| --- | --- |
| VPVAPPPPPASLGQS | 0 |
| MAMRPIPPLPTESEY | 7 |
| TIRRRAPLSLLESHT | 0 |
| LRIKRKPVQTFFEFI | 8 |
| VGFRLALKFPSRITG | 164 |
| ALFRLSFFFPLDPAY | 44 |

Problem: Using the record for AAAPKHAPPPVPNET , report its SPOT intensity.
Result: 557
